# Assay text: clinical
# Condition label: human, in vivo, Elvitegravir Ctrough,ss, individual patients
Metric name: concentration at 24 h

GET /values?readout=concentration at 24 h&item= COc1cc2c(cc1Cc1cccc(Cl)c1F)c(=O)c(C(=O)O)cn2[C@H](CO)C(C)C < 80 ng/mL
